molecular target: T1, HLA-A*0201 (human); test: REVEAL MHC binding assay, incorporation into MHC relative to positive control peptide
T1 construct: Class I MHC molecule of the ProImmune REVEAL assay; also called HLA-A2
experimental-readout: % Positive Control (%)
A number alone suffices; assume %.

Problem: # input binder: RVLDTPYLL (synthetic nine-residue peptide of human CD133 (ProImmune)) [CD133 peptide RVLDTPYLL (SEQ ID NO:14)] ; wanted: its % Positive Control
Solution: 165

Problem: And what about the binder YLQWIEFSI (synthetic nine-residue peptide of human CD133 (ProImmune)) [CD133 peptide YLQWIEFSI (SEQ ID NO:11)] ?
Solution: 113

Problem: And what about the binder FLLPALIFA (synthetic nine-residue peptide of human CD133 (ProImmune)) [CD133 peptide FLLPALIFA (SEQ ID NO:21)] ?
Solution: 93.6

Problem: And what about the binder LVLGSLLLL (synthetic nine-residue peptide of human CD133 (ProImmune)) [CD133 peptide LVLGSLLLL (SEQ ID NO:17)] ?
Solution: 102

Problem: And what about the binder GLLERVTRI (synthetic nine-residue peptide of human CD133 (ProImmune)) [CD133 peptide GLLERVTRI (SEQ ID NO:20)] ?
Solution: 131

Problem: And what about the binder SLDFAQNFI (synthetic nine-residue peptide of human CD133 (ProImmune)) [CD133 peptide SLDFAQNFI (SEQ ID NO:15)] ?
Solution: 115

Problem: And what about the binder NLLSFAYDL (synthetic nine-residue peptide of human CD133 (ProImmune)) [CD133 peptide NLLSFAYDL (SEQ ID NO:12)] ?
Solution: 180

Problem: And what about the binder VLDEIKSMA (synthetic nine-residue peptide of human CD133 (ProImmune)) [CD133 peptide VLDEIKSMA (SEQ ID NO:10)] ?
Solution: 309

Problem: And what about the binder ILCCVLGLL (synthetic nine-residue peptide of human CD133 (ProImmune)) [CD133 peptide ILCCVLGLL (SEQ ID NO:19)] ?
Solution: 163

Problem: And what about the binder ELVHIFLYV (synthetic nine-residue peptide of human CD133 (ProImmune)) [CD133 peptide ELVHIFLYV (SEQ ID NO:16)] ?
Solution: 156

Problem: And what about the binder SQLNSNPEL (synthetic nine-residue peptide of human CD133 (ProImmune)) [CD133 peptide SQLNSNPEL (SEQ ID NO:18)] ?
Solution: 123

Problem: And what about the binder FITNNTSSV (synthetic nine-residue peptide of human CD133 (ProImmune)) [CD133 peptide FITNNTSSV (SEQ ID NO:13)] ?
Solution: 107
